Ref: ChEMBL document CHEMBL1961873

- System: Platelet-derived growth factor receptor alpha (Homo sapiens), P16234 [T674I]
- Sequence (P16234 whole entry T674I): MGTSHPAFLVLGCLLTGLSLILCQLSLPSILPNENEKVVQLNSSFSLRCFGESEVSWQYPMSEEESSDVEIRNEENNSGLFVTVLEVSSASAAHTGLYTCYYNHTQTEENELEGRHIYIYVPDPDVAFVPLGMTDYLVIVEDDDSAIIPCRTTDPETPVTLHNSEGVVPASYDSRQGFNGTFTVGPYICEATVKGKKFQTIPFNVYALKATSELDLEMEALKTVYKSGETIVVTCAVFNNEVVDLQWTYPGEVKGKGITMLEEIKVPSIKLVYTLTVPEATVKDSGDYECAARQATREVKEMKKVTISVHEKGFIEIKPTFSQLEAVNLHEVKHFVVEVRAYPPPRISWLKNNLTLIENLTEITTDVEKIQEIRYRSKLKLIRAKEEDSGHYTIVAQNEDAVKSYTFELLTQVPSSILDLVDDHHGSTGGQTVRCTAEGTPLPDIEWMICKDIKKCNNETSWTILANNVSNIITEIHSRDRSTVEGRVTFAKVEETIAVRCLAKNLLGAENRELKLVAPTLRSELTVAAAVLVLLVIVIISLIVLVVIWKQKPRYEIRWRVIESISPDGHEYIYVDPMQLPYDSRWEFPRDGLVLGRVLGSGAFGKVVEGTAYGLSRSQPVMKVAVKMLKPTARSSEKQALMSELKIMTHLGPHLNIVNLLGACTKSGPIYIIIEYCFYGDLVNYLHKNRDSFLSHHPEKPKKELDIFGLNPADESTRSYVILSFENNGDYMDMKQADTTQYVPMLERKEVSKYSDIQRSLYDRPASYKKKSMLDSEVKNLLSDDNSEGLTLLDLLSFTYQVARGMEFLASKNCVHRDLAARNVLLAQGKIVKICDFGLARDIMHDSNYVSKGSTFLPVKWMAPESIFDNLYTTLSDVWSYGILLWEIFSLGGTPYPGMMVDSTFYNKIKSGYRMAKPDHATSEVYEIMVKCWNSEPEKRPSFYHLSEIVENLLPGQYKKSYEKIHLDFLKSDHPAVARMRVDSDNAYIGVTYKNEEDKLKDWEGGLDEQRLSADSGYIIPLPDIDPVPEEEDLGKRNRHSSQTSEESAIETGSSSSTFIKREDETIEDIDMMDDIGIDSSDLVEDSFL
- experimental.setup: at 1 µM
Here, each record is paired with measured inhibition data.
Note: a bare number is incomplete; add the unit.

>  <input.smiles>
Cc1nc(-c2ccccc2)n2nc(NCCCN3CCOCC3)ncc12

>  <recorded.metric>
inhibition

>  <test.result>
5.5%

$$$$
>  <input.smiles>
CN1CCN(C(=O)c2ccc(NC(=O)Nc3ccc(N(C)c4ccnc(Nc5ccc(CS(C)(=O)=O)cc5)n4)cc3)cc2)CC1

>  <recorded.metric>
inhibition

>  <test.result>
85.5%

$$$$
>  <input.smiles>
COc1cccc(-n2nc(C)c3c(N/N=C(\C)c4ccncc4)ncnc32)c1

>  <recorded.metric>
inhibition

>  <test.result>
4.43%

$$$$
>  <input.smiles>
Nc1nccc(-c2c(-c3ccc(F)cc3)ncn2CCCN2CCOCC2)n1

>  <recorded.metric>
inhibition

>  <test.result>
7.81%

$$$$

Let's switch to this molecule now.
**Query** Name the recorded inhibition for ON=C1CCc2cc(-c3nc(C4CCNCC4)[nH]c3-c3ccncc3)ccc21 .
**Result** 0.52%

----------
- study.target: Serine/threonine-protein kinase PAK 6 (Homo sapiens)
- experimental.setup: at 1 µM
recorded.metric: inhibition (%)
Field: numeric (%). Do not append units.

>  <input.smiles>
COc1cc2ncnc(Nc3ccc4c(cnn4Cc4ccccc4)c3)c2cc1OC

>  <study.target>
Serine/threonine-protein kinase PAK 6 (Homo sapiens)

>  <result.unit>
%

>  <inhibition>
-6

$$$$
>  <input.smiles>
Nc1ccc(C#Cc2cncnc2Nc2ccc(OCc3cccc(F)c3)c(Cl)c2)cc1

>  <study.target>
Serine/threonine-protein kinase PAK 6 (Homo sapiens)

>  <result.unit>
%

>  <inhibition>
-1.86

$$$$
>  <input.smiles>
OCc1ccc(-c2nc(-c3ccccn3)c(-c3ccc4c(c3)OCO4)[nH]2)cc1

>  <study.target>
Serine/threonine-protein kinase PAK 6 (Homo sapiens)

>  <result.unit>
%

>  <inhibition>
5.51

$$$$
>  <input.smiles>
CN(C)c1cc2c(Nc3ccc4c(cnn4Cc4ccccc4)c3)ncnc2cn1

>  <study.target>
Serine/threonine-protein kinase PAK 6 (Homo sapiens)

>  <result.unit>
%

>  <inhibition>
-3.27

$$$$
>  <input.smiles>
COc1cc(Nc2nccc(-c3cnn4ncccc34)n2)cc(OC)c1

>  <study.target>
Serine/threonine-protein kinase PAK 6 (Homo sapiens)

>  <result.unit>
%

>  <inhibition>
-1.82

$$$$
>  <input.smiles>
COc1ccc(-c2nn3ncccc3c2-c2ccnc(Nc3cccc(C(F)(F)F)c3)n2)cc1

>  <study.target>
Serine/threonine-protein kinase PAK 6 (Homo sapiens)

>  <result.unit>
%

>  <inhibition>
-2.65

$$$$
>  <input.smiles>
CCn1c(-c2nonc2N)nc2c(C#CC(C)(C)O)nc(OCCNC)cc21

>  <study.target>
Serine/threonine-protein kinase PAK 6 (Homo sapiens)

>  <result.unit>
%

>  <inhibition>
1.16

$$$$
>  <input.smiles>
Cc1ccc(C(=O)NC2CC2)cc1-c1ccc2[nH]ncc2c1

>  <study.target>
Serine/threonine-protein kinase PAK 6 (Homo sapiens);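 further: values are mean percent inhibition of PAK6 kinase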

>  <result.unit>
%

>  <inhibition>
-8.86

$$$$

**Query** Name the recorded inhibition for COc1cc2ncn(-c3cc(OCc4ccccc4S(C)(=O)=O)c(C#N)s3)c2cc1OC .
**Result** 9.78

**Query** Try this compound next: O=C(Nc1ccc(Oc2ccc3[nH]c(NC(=O)c4ccco4)nc3c2)cc1)Nc1cc(C(F)(F)F)ccc1F
**Result** 6.45
